# test.details: Induction of erythroid differentiation in DBA/2J mouse Friend erythroleukemia cells assessed as benzidine positive cells after 6 days relative to control
# Assay type: functional, Leukemia cell
# Set-up: concentration or dose not given beside the values
Form field: Activity (one value per entry).
Give the quantity in %, number only.

Below, each entry is followed by its recorded Activity result.
[
  {
    "molecule": "CC(=O)Nc1ccc[n+]([O-])c1",
    "Activity (%)": 35
  },
  {
    "molecule": "CC(=O)Nc1ccc(=O)[nH]c1",
    "Activity (%)": 16
  },
  {
    "molecule": "CC(=O)Nc1cc(-c2ccccc2)ccn1",
    "Activity (%)": 8
  },
  {
    "molecule": "CC(=O)NCCc1ccccn1",
    "Activity (%)": 60
  },
  {
    "molecule": "CC(=O)Nc1cc(-c2ccccc2)cc[n+]1[O-]",
    "Activity (%)": 17
  },
  {
    "molecule": "Cn1ccccc1=O",
    "Activity (%)": 74
  }
]

Which Activity reading was recorded for the molecule CC(=O)Nc1cccc(NC(C)=O)n1 ? 28

Continue with Oc1ccccn1 26

Moving on to CC(=O)Nc1cccc(=O)[nH]1 4

Lookup CC(=O)Nc1cccnc1 43

Input CC(=O)Nc1cccc[n+]1[O-] 43

Now consider CC(=O)NCc1ccccn1 and answer again. 68

Note, next up: CC(=O)Nc1ccccn1 72

Note, next up: CC(=O)Nc1ccc(=O)n(C)c1 67

And the next one, CC(=O)Nc1cccc(=O)n1C ? 73

// same read-out, input: C[S+](C)[O-] [DIMETHYL SULFOXIDE] 80
